- experiment_description: chemical genetic growth profiling, strain panel (AID 1159580);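 further: tested at 20 µM; growth read once vehicle control cultures reached saturation at 30 °C; 1 = growth at the plate median or of vehicle wells; lower values mean less growth of the strain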
- condition_notes: S. cerevisiae deletion strains, growth OD, locus YAL013W, strain DEP1, active compounds read low
Screen size: about 5,500 compounds; about 2,000 (36%) were called active. About 18% were inconclusive and are not listed. The list shows a part of the results.
Form field: normalized growth (one value per entry).
Enter the number alone.

molecule: CN1CCCC1c1cccnc1 (stereo not given)
measured_quantity: normalized growth
observed: 0.987

molecule: CC(C)(C)OC(=O)NCc1n[nH]c(=S)n1-c1ccccc1
measured_quantity: normalized growth
observed: 1.03

molecule: CC(=O)c1ccccc1OC(=O)c1c(-c2c(Cl)cccc2Cl)noc1C
measured_quantity: normalized growth
observed: 0.996

molecule: Cc1onc(-c2ccccc2)c1C(=O)On1c(-c2ccccc2)nc2ccccc2c1=O
measured_quantity: normalized growth
observed: 0.963

# input So what's the measured normalized growth for this one? C[C@H]1[C@H](C)CC[C@]2(C(=O)O)CC[C@]3(C)C(=CCC4[C@@]5(C)C[C@@H](O)[C@H](O)[C@@](C)(CO)C5[C@H](O)C[C@]43C)[C@H]12 (stereo not given in full)
# output 0.769

Measured values drawn from PubChem BioAssay AID1159580 for this set.
